test system: LXFL 529; assay: NCI tumour cell line growth inhibition, 48 h
Calls of active or inactive are those of the source. Rule as the data show it: active = GI50 up to about 1.1 µM and inactive = higher.
Assign GI50 to each entry below.

Below are worked cases with known answers.
INSERT INTO results (molecule, reportedendpoint, experimentalvalue) VALUES
  ('O=C1OC2C(O)COC2(O)C1(O)Cc1c[nH]c2ccccc12.O=C1OC2C(O)COC2(OCc2c[nH]c3ccccc23)C1O (stereo unspecified)', 'GI50', '> 100 µM (inactive)'),
  ('COc1ccc(Nc2nc(C#N)c(N)s2)cc1', 'GI50', '31.9 µM (inactive)'),
  ('Nc1ccccc1[S+]([O-])c1ccccc1 (stereo unspecified)', 'GI50', '> 100 µM (inactive)'),
  ('CC1=NNC(=O)C2CCC(=O)N12 (stereo unspecified)', 'GI50', '> 100 µM (inactive)'),
  ('CCC1(O)C(=O)OCc2c1cc1n(c2=O)Cc2cc3ccc(CO)cc3nc2-1 (stereo unspecified)', 'GI50', '26.7 µM (inactive)'),
  ('O=C(CC/C(CC(=O)c1ccc(Cl)cc1)=N\O)Nc1cccc(Cl)c1', 'GI50', '> 100 µM (inactive)');

Provide reported GI50 for each item, in the same order as listed.
1. CC(=O)O[C@]12CCCCCC1C1(O)C(O)CCCCC12 (stereo partly specified)
2. COc1cc(/C=C(\C)c2ccc3c(c2)OCO3)cc(OC)c1OC
3. O=C1C=C(c2ccccc2)NC1(c1ccccc1)c1cc(-c2ccccc2)[nH]c1-c1ccccc1 (stereo unspecified)

output:
1. > 100 µM (inactive)
2. 14.7 µM (inactive)
3. > 100 µM (inactive)

Provide reported GI50 for each item, in the same order as listed.
1. CC[P+](C)(Cc1ccccc1)c1ccccc1 (stereo unspecified)
2. CN(C)c1ccc(/C=C(/NC(=O)c2ccccc2)c2nc3cc(Cl)ccc3[nH]2)cc1

output:
["74.6 µM (inactive)", "30.1 µM (inactive)"]

###

Assign GI50 to each entry below.
system: MOLT-4; assay: NCI tumour cell line growth inhibition, 48 h
Calls of active or inactive are those of the source. No stated cut-off is given here; in the data, active = GI50 up to about 1.1 µM and inactive = higher.

Below are worked cases with known answers.
INSERT INTO measurements (compound, reportedendpoint, experimentalvalue) VALUES
  ('COc1ccc(/C=N/N=C(\N)NO)c(OC)c1OC', 'GI50', '42.3 µM (inactive)'),
  ('Cc1cc(C)c(O)c(Cc2cccc(Cc3cc(C)cc(C)c3O)c2O)c1', 'GI50', '> 100 µM (inactive)'),
  ('CCCN1CN(C(C(=O)N[C@@H]2C(=O)N3C(C(=O)O)=C(C)CSC23)c2ccccc2)CSC1=S (stereo not given in full)', 'GI50', '> 100 µM (inactive)'),
  ('CCOP(=O)(OCC)OC1c2[nH]ccc2-c2cc(C(=O)OC)[nH]c2C1OC (stereo not given)', 'GI50', '> 100 µM (inactive)');

Moving on to another compound below.
input: For MOLT-4, give the measured GI50 of the entry Cc1cc(C)n(C(=O)C(C)Sc2nnc(SC(C)C(=O)n3nc(C)cc3C)s2)n1 (stereo not given)
output: > 100 µM (inactive)

###

test system: A498; assay: NCI tumour cell line growth inhibition, 48 h
Active and inactive are the calls of the source. Cut-off read from the data, not from the text of the source: active = GI50 up to about 1.1 µM and inactive = higher.
Pick one and only one: 1.0 for active, 0.0 for inactive

Recorded results for 5 molecules are shown here.
INSERT INTO measurements (molecule, target, grouplabel) VALUES
  ('Cc1nc2ccccc2c(=O)n1/N=C/c1ccc(N(C)C)cc1', 'A498', 0.0),
  ('CSc1c(C(=O)Nc2ccccc2)c(N)nn1-c1ccccc1', 'A498', 0.0),
  ('COc1ccc(CC(C#N)c2cc(OC)c(OC)c(OC)c2)cc1 (stereo not drawn)', 'A498', 1.0),
  ('O=C1/C(=C/c2ccco2)NC(=S)N1CN1CCCCC1', 'A498', 0.0),
  ('NC12Oc3cc(O)cc(O)c3C1(c1ccc(Cl)cc1)c1c(O)cc(O)cc1O2 (stereo not drawn)', 'A498', 0.0);

input: Per the records of this test, what outcome belongs to COc1cc(/C=C(\C)c2ccc3c(c2)OCO3)cc(OC)c1OC ?
output: 0.0

input: Per the records of this test, what outcome belongs to N#CC(C(=O)CCC(=O)Nc1cccc(C(F)(F)F)c1)c1ccc(Cl)cc1 (stereo not drawn) ?
output: 0.0

input: Per the records of this test, what outcome belongs to CC1(C(=O)Nc2ccc3ccccc3c2)CC2(C)CC(C)(C1)C(O)NC2=O (stereo not drawn) ?
output: 0.0

input: Per the records of this test, what outcome belongs to O=CNCCCN1CCN(CCCNC=O)CC1 ?
output: 0.0

input: Per the records of this test, what outcome belongs to CCOC(=O)C1=C(C)N(Cc2ccccc2)C(=O)C1CC#N (stereo not drawn) ?
output: 0.0

###

test system: RPMI-8226; experiment: NCI tumour cell line growth inhibition, 48 h
Activity calls are given as the source filed them. No stated cut-off is given here; in the data, active = GI50 up to about 1.1 µM and inactive = higher. Where a SMILES comes first, the peptide text is derived from it. Non-standard residues stand in square brackets, D forms with d. Residues, ends and D or L forms follow the SMILES beside them. [ ]: non-standard residue; d: D form. The star is where a group is joined. *: point of attachment. Chg = N[CH](C(=O)O)C1CCCCC1; Ac5c = NC1(C(=O)O)CCCC1; Cbz = O=C(OCc1ccccc1)*; Boc = CC(C)(C)OC(=O)*; OBn = c1ccc(CO*)cc1; tBu = CC(C)(C)*
Assign GI50 to each entry below.

INSERT INTO results (compound, reportedendpoint, experimentalvalue) VALUES
  ('COC(=O)C(=O)C(C(=O)C(=O)Nc1cccc(OC)c1)c1nc2ccc(Cl)cc2nc1O (stereo unspecified)', 'GI50', '> 100 µM (inactive)'),
  ('COC(=O)C(NC(=O)C(CC(=O)OCc1ccccc1)NC(=O)OCc1ccccc1)C1CCCCC1 (stereo unspecified) (Cbz-Asp(OBn)-[Chg]-OMe; configuration not given here)', 'GI50', '48.2 µM (inactive)'),
  ('O=C1OC[C@@H]2Cc3c([nH]c4ccccc34)[C@@H](c3cc(O)c(O)c(O)c3)N12', 'GI50', '27.5 µM (inactive)'),
  ('Cn1c(=O)c2c(ncn2Cc2ccc(O)c([N+](=O)[O-])c2)n(C)c1=O', 'GI50', '> 100 µM (inactive)'),
  ('COC1C2c3cc4c(cc3CC(C#N)(c3ccccc32)N1C(=O)c1ccccc1)OCO4 (stereo unspecified)', 'GI50', '21 µM (inactive)'),
  ('O=C(Cn1c2ccc(Br)cc2c2nc3ccccc3nc21)NNC(=O)NC1CCCCC1', 'GI50', '> 100 µM (inactive)'),
  ('COc1cc(Nc2n[nH]c(NS(=O)(=O)c3cc(C)c(Cl)cc3S)n2)cc(OC)c1OC', 'GI50', '> 100 µM (inactive)'),
  ('O=C1CCc2ccc3c(c21)CC1(Cc2ccccc2C1)C3', 'GI50', '6.55 µM (inactive)'),
  ('COc1cc([N+](=O)[O-])ccc1NC1=CC(=O)CCC1', 'GI50', '> 100 µM (inactive)'),
  ('Cc1ccccc1C(=O)N/N=C/c1ccc(Sc2nccn2C)c([N+](=O)[O-])c1', 'GI50', '47.9 µM (inactive)');

Provide reported GI50 for each item, in the same order as listed.
1. COC(=O)C1(NC(=O)C(Cc2ccccc2)NC(=O)C(NC(=O)C(CCCCNC(=O)OC(C)(C)C)NC(=O)C(Cc2c[nH]c3ccccc23)NC(=O)C(Cc2ccccc2)NC(=O)OCc2ccccc2)C(C)OC(C)(C)C)CCCC1 (stereo unspecified) (Cbz-FWK(Boc)T(tBu)F[Ac5c]-OMe; configuration not given here)
2. CC(=O)NC(Cc1ccc(OP(=O)(OCc2ccc([N+](=O)[O-])o2)N(C)CCCCCl)cc1)C(=O)NC(C)c1ccc(OCC2CCCCC2)c(C(N)=O)c1 (stereo unspecified)
3. CCOP(=O)(O)CN1CCNCCN(CP(=O)(O)OCC)CCNCC1
4. CC(=O)OCC1OC(n2cc(F)c(=O)[nH]c2=O)C(OC(C)=O)C1OC(C)=O (stereo unspecified)

output:
> 100 µM (inactive)
1.72 µM (inactive)
> 100 µM (inactive)
19.8 µM (inactive)

Provide reported GI50 for each item, in the same order as listed.
1. CSc1c(C(=O)Nc2ccccc2)c(N)nn1-c1ccccc1
2. CC1CC[C@@]2(OC1)OC1C[C@H]3[C@@H]4CC[C@H]5CC(OC6OC(CO)C(OC7OC(CO)C(O)C(O)C7O)C(O)C6O)CCC5(C)[C@H]4CCC3(C)C1[C@@H]2C (stereo partly specified)

output:
1. > 100 µM (inactive)
2. 13.7 µM (inactive)

###

test system: DMS-114; experiment: NCI tumour cell line growth inhibition, 48 h
Calls of active or inactive are those of the source. Rule as the data show it: active = GI50 up to about 1.1 µM and inactive = higher.
Pick one and only one: label 1 for active, label 0 for inactive

INSERT INTO assay_data (molecule, grouplabel) VALUES
  ('CC(=O)O[C@]12CCCCCC1C1(O)C(O)CCCCC12 (stereo partly specified)', 'label 0'),
  ('O=C1C=C(c2ccccc2)NC1(c1ccccc1)c1cc(-c2ccccc2)[nH]c1-c1ccccc1 (stereo unspecified)', 'label 0'),
  ('CCOC(=O)[C@]12C3C=CC(C3)C1C(=O)C1OC12 (stereo partly specified)', 'label 0'),
  ('Cc1cc2oc(-c3ccccc3)c(C)c(=O)c2c2c1OC(C)(C)S2', 'label 0'),
  ('CC(=O)OC(C)(C)/C=C/C(=O)[C@](C)(O)[C@H]1[C@H](O)C[C@@]2(C)[C@@H]3CC=C4[C@@H](C=C(O)C(=O)C4(C)C)[C@]3(C)C(=O)C[C@]12C [CUCURBITACIN E]', 'label 1'),
  ('O=C(O)c1ccc(Nc2nc3nn(Cc4ccccc4)cc3c(=O)s2)cc1', 'label 0'),
  ('CC1=C(NC(=O)C(=O)NNC(=O)c2ccncc2)C(=O)c2ccccc2C1=O', 'label 0'),
  ('COC1=C(N)C(=O)c2nc(C)ccc2C1=O', 'label 0'),
  ('CC1SC2=NC3=C(c4ccccc4C3=O)C(c3ccc(F)cc3)N2C1=O (stereo unspecified)', 'label 0'),
  ('CC1=NNC(=O)C2CCC(=O)N12 (stereo unspecified)', 'label 0');

input: Per the records of this test, what outcome belongs to CC1=C2C=CC(=O)C[C@@]2(C)CCC1 ?
output: label 0

input: Per the records of this test, what outcome belongs to CCOC(=O)C1=C(C)N(Cc2ccccc2)C(=O)C1CC#N (stereo unspecified) ?
output: label 0

input: Per the records of this test, what outcome belongs to CCOC(=O)C(=O)Nc1ccccc1C ?
output: label 0

input: Per the records of this test, what outcome belongs to O=C1Cc2ccccc2N1/N=C\c1ccc([N+](=O)[O-])cc1 ?
output: label 0

input: Per the records of this test, what outcome belongs to OC1=CN=COc2ccccc21 ?
output: label 0

input: Per the records of this test, what outcome belongs to COC1=C(C(=O)OC(C)(C)C)[C@]2(C)C(C(=O)OC(C)(C)C)C(OC)=C(C(=O)OC(C)(C)C)[C@]2(C)C1C(=O)OC(C)(C)C (stereo partly specified) ?
output: label 0

input: Per the records of this test, what outcome belongs to Cc1nc2c(s/c(=N\N)n2-c2ccccc2)c(=O)[nH]1 ?
output: label 0

Values from ChEMBL document CHEMBL1201862
